Hey, just so you know, these numbers are from patent US10265297B2.

- procedure-summary: Oral pharmacokinetics in male Sprague Dawley rats
- Assay type: in vivo
- condition-notes: rat, serum, 250 mg/kg, read-out: Vss/F
Give measured Vd/F for each item. Keep answers brief.
Express it in L/kg; write the number only.

What value of measured Vd/F is listed for COc1c(-c2ccc(O)c(O)c2)oc2cc3c(c(O)c2c1=O)OCO3 ?
43.3

What value of measured Vd/F is listed for COc1c(O)cc2oc(-c3ccc(O)c(O)c3)c(OC)c(=O)c2c1O ?
5.6

----------
- procedure-summary: Oral pharmacokinetics in male Sprague Dawley rats
- Type: in vivo
- condition-notes: rat, serum, 250 mg/kg
reported-metric: MRT

What value of measured MRT is listed for COc1c(O)cc2oc(-c3ccc(O)c(O)c3)c(OC)c(=O)c2c1O [Compound K008] ?
3.9 h

What value of measured MRT is listed for COc1c(-c2ccc(O)c(O)c2)oc2cc3c(c(O)c2c1=O)OCO3 [Compound K007] ?
3.4 h
